testedOn: Potassium channel subfamily K member 9 (Homo sapiens) (UniProt Q9NPC2)
Sequence (Q9NPC2 whole entry, looked up): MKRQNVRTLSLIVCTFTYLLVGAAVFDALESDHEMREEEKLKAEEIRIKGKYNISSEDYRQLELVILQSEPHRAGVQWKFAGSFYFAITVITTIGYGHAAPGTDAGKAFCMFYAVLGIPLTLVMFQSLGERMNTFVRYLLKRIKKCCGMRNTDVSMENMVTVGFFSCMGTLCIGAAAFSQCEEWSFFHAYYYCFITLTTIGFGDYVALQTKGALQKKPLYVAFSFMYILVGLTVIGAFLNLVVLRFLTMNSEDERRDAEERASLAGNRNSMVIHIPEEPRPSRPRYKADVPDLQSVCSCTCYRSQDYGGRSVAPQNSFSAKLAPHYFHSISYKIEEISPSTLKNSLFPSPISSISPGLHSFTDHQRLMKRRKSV
testDescription: blockers of human TASK-3 (KCNK9) channel – HEK293 cells, thallium flux, primary screen (AID 488922)
conditionSet: HEK293 KCNK9, FluxOR thallium flux fluorescence, at 10 µM
In all, about 310,000 compounds went through this assay and about 3,800 (1.2%) were called active.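 The calls were made as follows: active = ratio B-score over 3 SD below the library mean, with starting fluorescence within 5 SD of its mean; inactive = the rest, inconclusive results apart.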 Shown is part of a subset that was picked to be rich in actives.
Entry note: the call must match one of y for active, n for inactive

Solved cases (4 shown):
Could you kindly confirm the outcome this assay logged for COc1ccc(NC(=O)c2cc3nc(-c4ccccc4)cc(C)n3n2)cc1OC ?
n

Could you kindly confirm the outcome this assay logged for CCn1c(SCC(=O)Nc2cc(C)c(Cl)cc2OC)nnc1-c1ccco1 ?
n

Could you kindly confirm the outcome this assay logged for CC1(c2cccc([N+](=O)[O-])c2)CC(C)(C)N(C(=O)c2ccccc2)c2ccccc21 (stereo not given) ?
y

Could you kindly confirm the outcome this assay logged for Cc1ccc(NS(=O)(=O)c2ccc(-c3coc(C)n3)cc2)c(C)c1 ?
n

---
Could you kindly confirm the outcome this assay logged for COCCNc1cc(-c2ccccc2)nc2cc(-c3cccc(F)c3)nn12 ?
y

----------
testedOn: Potassium channel subfamily K member 9 (Homo sapiens) (UniProt Q9NPC2)
testDescription: blockers of human TASK-3 (KCNK9) channel – HEK293 cells, thallium flux, primary screen (AID 488922)
conditionSet: HEK293 KCNK9, FluxOR thallium flux fluorescence, at 10 µM
Out of some 310,000 compounds screened, about 3,800 (1.2%) were called active.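 How the source made its calls: active means ratio B-score over 3 SD below the library mean, with starting fluorescence within 5 SD of its mean; inactive means the rest, inconclusive results apart.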 Many of the other results were omitted from the sample, so actives are more common in it than they were.
Entry note: the call must match one of t for active, f for inactive

Solved cases (2 shown):
Could you kindly confirm the outcome this assay logged for COc1ccccc1C(=O)Nn1cnnc1 ?
f

Could you kindly confirm the outcome this assay logged for COc1ccc2nc(Nc3nc(-c4cc5ccccc5oc4=O)cs3)sc2c1 ?
t

---
Could you kindly confirm the outcome this assay logged for O=C(CSc1ncn[nH]1)NCc1ccc2c(c1)OCO2 ?
f

Could you kindly confirm the outcome this assay logged for COc1cccc(CNCCc2c[nH]c3ccccc23)c1OCc1ccccc1F ?
t

Could you kindly confirm the outcome this assay logged for O=C(c1cccc(S(=O)(=O)N2CCCC2)c1)N(Cc1ccco1)C1CCS(=O)(=O)C1 (configuration not stated) ?
f

----------
testedOn: Potassium channel subfamily K member 9 (Homo sapiens) (UniProt Q9NPC2)
testDescription: blockers of human TASK-3 (KCNK9) channel – HEK293 cells, thallium flux, primary screen (AID 488922);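 as to B-score: negative B-score means less thallium flux so channel inhibition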
conditionSet: HEK293 KCNK9, FluxOR thallium flux fluorescence, at 10 µM; active compounds read low
The campaign covered roughly 310,000 compounds. About 3,800 (1.2%) were called active. Many of the other results were omitted from the sample, so actives are more common in it than they were.
quantityName: B-score

Given the entry CNS(=O)(=O)c1cccc(C(=O)NCC2CCCCC2)c1 , report its measured B-score.
inactive

Given the entry Cc1cc(C)c(SCCc2ccncc2)c(C)c1 , report its measured B-score.
inactive

Given the entry CN(c1ccccc1)S(=O)(=O)c1cccc(NC(=O)Cc2c(F)cccc2Cl)c1 , report its measured B-score.
-15.5 (active)

Given the entry Cc1ccc(S(=O)(=O)N2CCN(C(=O)c3ccc(-n4cncn4)c([N+](=O)[O-])c3)CC2)cc1 , report its measured B-score.
inactive

Origin of values: PubChem BioAssay AID488922
